# Test system: UACC-62 melanoma
# Method Summary: NCI-60 one-dose screen, 48 h (100 = growth as untreated, 0 = no growth, -100 = all killed)
# Experimental Conditions: 10 µM unless noted
The panel holds about 83,000 compounds, 20% with a hit somewhere; the sample as a whole holds those more often.
Would you mind classing the entries by growth? Ranges: group 1 = under 30%, group 2 = from 30% up to 50%, group 3 = 50% and over

Compound: CCSc1oc(C)nc1[P+](c1ccccc1)(c1ccccc1)c1ccccc1
Category Label: group 1
//
Compound: O=C(NNC(=O)c1ccc(NC(=O)c2ccccn2)cc1)Nc1ccc2ccccc2c1
Category Label: group 3
//
Compound: COC(=O)N1CC(Oc2ccccn2)C2CC1c1ccccc1O2 (centres undefined)
Category Label: group 3
//
Compound: CN1CCN(CC(=O)Nc2ccc3ncnc(Nc4ccc(Oc5cccc(C(F)(F)F)c5)c(Cl)c4)c3c2)CC1
Category Label: group 1
//
Compound: Cc1ccc(NC(=O)Cn2c(Br)nc3c2c(=O)n(C)c(=O)n3C)cc1
Category Label: group 2
//
Compound: CCN1CCN(C(=O)[C@]23CC[C@@H](C)[C@H](C)[C@@H]2C2=CC[C@@H]4[C@@]5(C)C/C(=C/c6cccnc6)C(=O)C(C)(C)[C@@H]5CC[C@@]4(C)[C@]2(C)CC3)CC1
Category Label: group 2
//
Compound: COc1cccc(/C=C/C(=O)c2cc3c(N)c(C(=O)Nc4cccc5ccccc45)sc3nc2C)c1
Category Label: group 1
//
Compound: Oc1c(CN2CCC(N3CCCCC3)CC2)cc(Cc2cc(CN3CCC(N4CCCCC4)CC3)c(O)c3ncccc23)c2cccnc12
Category Label: group 1
//
Compound: CCCCNc1cc(-c2cn[nH]c2-c2cc(C)cc(OC)c2)nc(-c2cccnc2)n1
Category Label: group 3
//
Compound: C#CCOc1cccc(-c2ncnc3cc(NC(=O)C=C)ccc23)c1
Category Label: group 2
//
Compound: Cc1nn(-c2cc(NC3CCC(O)CC3)c3c(=O)[nH]c(CCC(F)(F)F)cc3c2)c2c1C(=O)CC(C)(C)C2 (centres undefined)
Category Label: group 2
//
Compound: CCN1C(=O)N(CC)C2C1NC(=S)N2/N=C/c1ccc(C(F)(F)F)cc1 (centres undefined)
Category Label: group 2
//
Compound: O=C1c2ccccc2C(=O)c2c1cc1c(c2[N+](=O)[O-])OCO1
Category Label: group 1
//
Compound: CC1CCN(C(=S)SCC(=O)NC(=O)c2ccccc2)CC1
Category Label: group 3
//
Compound: CC/C=C\CCC/C=C1/C(=O)C=C[C@@H]1C/C=C\CCCC(=O)OC
Category Label: group 1
//
Compound: C=CC(=O)Nc1ccc(Nc2nccc(-c3ccc(N4CCCC4)c(C#N)c3)n2)cc1
Category Label: group 3
//
Compound: CN(C)c1ccc(-c2ccc3c(c2)c(-c2ccccc2)nc(=O)n3C)cn1
Category Label: group 1
//
Compound: CN1C(=O)/C(=C2\SC(=Nc3ccccc3)N(Nc3ccccc3)C2=O)c2ccccc21
Category Label: group 3

====

# System: SF-295 CNS
# Method Summary: NCI-60 one-dose screen, 48 h
# Experimental Conditions: 10 µM unless noted
Compounds without any hit were thinned out: in the full panel of roughly 83,000, 20% have a hit. Active and inactive are the calls of the source. The calls were made as follows: active = growth percent below 10; inactive = the rest.
Possible outcomes: active, inactive

Molecule: Nc1nc(N)c2c(n1)NC(c1ccc(Cl)cc1)C1CCc3ccccc3C1=N2 (stereo not given)
Category Label: inactive

Molecule: COc1ccc(-c2nc3c(N)c(CO)cnc3s2)cc1
Category Label: inactive

Molecule: CC(=C(c1ccc(OCCN2CCCCC2)cc1)c1ccc(OCCN2CCCCC2)cc1)c1ccc(Cl)cc1
Category Label: active

Molecule: N#Cc1ccc(O)c(C2=NCC(Cc3ccccc3)O2)c1 (stereo not given)
Category Label: inactive

Molecule: Cc1ccc(N2C(=O)CCC2=O)cc1
Category Label: inactive

====

# System: NCI/ADR-RES ovarian
# Method Summary: NCI-60 one-dose screen, 48 h
# Experimental Conditions: 10 µM unless noted
This is part of a sample that, as a whole, favours compounds with a hit. Of some 83,000 tested, about 20% had one in any assay. Activity calls are given as the source filed them. How the source made its calls: active means growth percent below 10; inactive means the rest.
Labels: active, inactive

Compound: C=C(CNCCO)[C@@H]1CC[C@]2(CO)CC[C@]3(C)[C@H](CC[C@@H]4[C@@]5(C)CCC(N)C(C)(C)[C@@H]5CC[C@]43C)[C@@H]12 (stereo partly drawn)
Category Label: inactive
--
Compound: C=C1C(=O)O[C@H]2[C@H]1CC/C(COC(=O)c1cc3cc(Cl)ccc3[nH]1)=C\CC[C@@]1(C)O[C@@H]21
Category Label: active
--
Compound: CN(C)c1ccc(-c2nc(-c3ccccc3)c(-c3ccccc3)[nH]2)cc1
Category Label: inactive
--
Compound: COc1ccc(/C=C/c2ccc3ccccc3n2)c(OC)c1
Category Label: inactive
--
Compound: O=C(C1CCCCC1)[C@@H]1[C@]2(C(=O)NC3CCCCC32)[C@@H]2CCCN2[C@@]12C(=O)NC1CCC(Cl)CC12 (stereo partly drawn)
Category Label: active
--
Compound: COC(=O)C(Cc1ccccc1)NC(=O)c1ccc(NC(=O)c2[nH]c(C)c(Cl)c2Cl)c(OC(C)C)c1 (stereo not drawn)
Category Label: inactive
--
Compound: CN(CCCNC(=O)CCOCCOCCOCCNC(=O)Cc1ccc2ccc3cccc4ccc1c2c34)CCCNc1cc(-c2ccc3ccccc3c2)nc2ccccc12
Category Label: active
--
Compound: CN(CCC(=O)c1ccccc1)CCC(=O)c1ccccc1
Category Label: inactive

====

# Test system: 786-0 renal
# Method Summary: NCI-60 one-dose screen, 48 h (100 = growth as untreated, 0 = no growth, -100 = all killed)
# Experimental Conditions: 10 µM unless noted
This is part of a sample that, as a whole, favours compounds with a hit. Of some 83,000 tested, about 20% had one in any assay.

Chemical String: COC(=O)c1cc(Br)ccc1O
Output Unit: %
growth: 96.7
--
Chemical String: Ic1ccccc1I
Output Unit: %
growth: 92
--
Chemical String: Cc1ccc(S(=O)(=O)c2nc(-c3ccccc3)oc2Sc2nc3ccccc3s2)cc1
Output Unit: %
growth: 35.3
--
Chemical String: CCOC(=O)C(Cc1ccc(OC)cc1)C(=O)OCC
Output Unit: %
growth: 39.3
--
Chemical String: CN(C)CCCNC(=O)c1cncnc1Nc1ccc(OCc2cccc(F)c2)c(Cl)c1
Output Unit: %
growth: -78.7
--
Chemical String: CCNc1nc(O)c(/C=C2\C=Nc3ncccc32)s1
Output Unit: %
growth: 3.02
--
Chemical String: Cc1ccc(/C=C/C(=O)Nc2ncc(Cc3ccc(F)cc3)s2)o1
Output Unit: %
growth: 66.5
--
Chemical String: NC(=O)c1cccc([C@@H]2O[C@H](CO)[C@@H](O)[C@H]2O)c1
Output Unit: %
growth: 12.9
--
Chemical String: CCN1CCN(CC(=O)Nc2ccc(-c3cn4c(n3)sc3cc(Oc5ccnc(C(=O)NC)c5)ccc34)cc2)CC1
Output Unit: %
growth: 75.3
--
Chemical String: O=C(CCCCCCN1CC(=O)N2[C@H](c3ccc(Br)cc3)c3[nH]c4ccccc4c3C[C@@H]2C1=O)NO
Output Unit: %
growth: 89.1
--
Chemical String: Oc1c(CN2CCCC2)cc(CSCc2ccccc2)c2cccnc12
Output Unit: %
growth: 6.65

====

We begin with a simple list: items and their reported growth.
# Test system: UO-31 renal
# Method Summary: NCI-60 one-dose screen, 48 h (100 = growth as untreated, 0 = no growth, -100 = all killed)
# Experimental Conditions: 10 µM unless noted
About 83,000 compounds went through this panel and 20% of them were active in at least one assay; those are over-represented in the sample as a whole. Calls of active or inactive are those of the source. The calls were made as follows: active = growth percent below 10; inactive = the rest.

Compound: CC[C@]12C=CCN3CC[C@@]4(c5ccc(OC)cc5N(C)[C@H]4[C@@](O)(C(=O)OC)[C@@H]1OC(=O)CCC[P+](c1ccccc1)(c1ccccc1)c1ccccc1)[C@@H]32
growth: 80% (inactive)
--
Compound: C=C1C(=O)O[C@H]2[C@H]1CC/C(COC(=O)/C=C\C(=O)NCc1ccc(Cn3c(=O)sn(CCCCC)c3=O)cc1)=C\CC[C@@]1(C)O[C@@H]21
growth: 60.7% (inactive)
--
Compound: COc1ccc(/C(C)=C(\c2ccc(Cl)cc2)c2ccc(OCCN3CCCCC3)cc2)cc1
growth: 48.1% (inactive)
--
Compound: C=CC(=O)Nc1ccc(Oc2nccc(Nc3nnc(-c4ccc(C)cc4)s3)n2)cc1
growth: 55.7% (inactive)
--
Compound: O=C1Nc2c(C(=O)O)cccc2/C1=N/c1n[nH]c(=S)s1
growth: 69.9% (inactive)
--
Compound: Cc1ccc(C2CC(c3nc(-c4ccc(Cl)cc4)oc3C)=NN2C(=O)c2ccncc2)cc1 (stereo unspecified)
growth: 58.2% (inactive)
--
Compound: CNC(C)[C@H]1CCC2C3CC=C4C(=O)[C@@H](NC(=O)C=C(C)C)CC[C@]4(C)C3CC[C@@]21C (stereo partly specified)
growth: -35.5% (active)
--
Compound: CC(=C(c1ccc(OCCN2CCCCC2)cc1)c1ccc(OCCN2CCCCC2)cc1)c1ccc(Cl)cc1
growth: -96% (active)
--
Compound: Oc1c(CN2CCC(N3CCCCC3)CC2)cc(Cc2cc(CN3CCC(N4CCCCC4)CC3)c(O)c3ncccc23)c2cccnc12
growth: 12.4% (inactive)
--
Compound: CCNC(=O)Oc1ccc(/C(=C(/C)Cc2ccc(OC)cc2)c2ccc(OCCN3CCCCC3)cc2)cc1
growth: 50.5% (inactive)
--
Compound: COc1cc(C(=O)n2nc(N3CCOCC3)c3cc(-n4cccc4)ccc32)cc(OC)c1OC
growth: 32.9% (inactive)
--
Compound: Cc1c2cccnc2c(C)c2c1c1cc(CO)ccc1n2C
growth: 17.9% (inactive)
--
Compound: Nc1[nH]n2cc(-c3ccc(F)cc3)nc2c1N=Nc1ccc(S(N)(=O)=O)cc1
growth: 58.3% (inactive)
--
Compound: CN(CCC(=O)c1ccccc1)CCC(=O)c1ccccc1
growth: 77.1% (inactive)
--
Compound: COc1ccc(C(=S)N2CCN(c3ccc(Cl)cc3)CC2)cc1
growth: 81.9% (inactive)
--
Compound: CC(=O)ON1CCCC(P(=O)(OCCSC(=O)C(C)(C)C)OCCSC(=O)C(C)(C)C)C1=O (stereo unspecified)
growth: -0.776% (active)
--
Compound: COc1ccc(NC(=O)Nc2ccc(OCCCCCC(=O)NO)cc2)cc1
growth: 87.4% (inactive)
--
Compound: CCOC(=O)c1c(C)c2c(n1Cc1ccccc1)CSCC2=O
growth: 24.6% [100 µM] (inactive)
--
Compound: CCn1c(-c2cc3c([nH]c4ccccc43)c(-c3cccc(O)c3)n2)n[nH]c1=S
growth: 47.3% (inactive)
--
Compound: O=C1c2ccccc2C(=O)c2c1c(C(=O)NCc1ccccc1)c1ccccn21
growth: 89.8% (inactive)
--
Compound: COc1ccc(C2=CN3CC=CC3CC2=O)cc1 (stereo unspecified)
growth: 103% (inactive)
--
Compound: Cc1cc2c(cc1C)N(C(=O)CCl)CC(=O)N2
growth: 78.3% (inactive)
--
Compound: CN(Cc1cc(Br)cc(Br)c1O)Cc1cc(Br)cc(Br)c1O
growth: 23.4% (inactive)
--
Compound: Cc1ccc(S(=O)(=O)Oc2ccc3sc4cccc(NCCN(C)C)c4c(=O)c3c2)cc1
growth: -95.5% (active)
--
Compound: CCc1n(Cc2ccc3ccccc3n2)cc[n+]1Cc1ccc2ccccc2n1
growth: 89.5% (inactive)
--
Compound: S=c1nc2oc(-c3ccccc3)c(-c3ccccc3)c2c(/N=C\c2ccco2)[nH]1
growth: 81.2% (inactive)
--
Compound: CC1(C)[C@@H](O[C@@H]2OC[C@@H](O[C@@H]3O[C@H](CO)[C@@H](O)[C@H](O)[C@H]3O[C@@H]3OC[C@@H](O)[C@H](O)[C@H]3O)[C@H](O)[C@H]2O[C@@H]2O[C@H](CO)[C@@H](O)[C@H](O)[C@H]2O)CC[C@]2(C)[C@H]3CC[C@]45OC[C@@]6(CC[C@](C)(C=O)C[C@H]64)[C@H](O)C[C@@]5(C)[C@]3(C)CC[C@@H]12
growth: -88.7% (active)
--
Compound: Nc1nc(N)c(N=Nc2ccccc2)c(-c2ccccc2)n1
growth: 36% (inactive)
--
Compound: COc1cc2nc3sc(C(=O)Nc4ccc(C(=O)OC(C)C)cc4)c(C(=O)Nc4ccc(Cl)cc4C)n3c(=O)c2cc1OC
growth: -5.58% (active)
--
Compound: CCN1CCN(CCNc2nccc(-c3c(-c4ccc(F)c(OC)c4)nc4sccn34)n2)S1(=O)=O
growth: 86.9% (inactive)
--
Compound: CN(C)CCCC1(c2ccc(F)cc2)OCc2cc(-c3cc4ccccc4s3)ccc21 (stereo unspecified)
growth: 21% (inactive)
--
Compound: Nc1nc(N)c2c(n1)NC(c1cccc(Nc3ccnc4cc(C(F)(F)F)ccc34)c1)CC(c1ccccc1)=N2 (stereo unspecified)
growth: 62.6% (inactive)
--
Compound: COc1ccc(Cn2cc(C(=O)N=Nc3c(O)[nH]c4c(C)cccc34)nn2)cc1
growth: 14.9% (inactive)
--
Compound: O=C(Nc1ccccc1O)c1ccc(CNC(=O)c2ccsc2Nc2ccnc(C(F)(F)F)c2)cc1
growth: 19.1% (inactive)
--
Compound: COc1ccc(Nc2ncccc2/C=C/C(=O)c2cc(OC)c(OC)c(OC)c2)cc1
growth: -79.6% (active)
--
Compound: O=C(c1c[nH]c2ccccc12)c1n[nH]c(=S)n1-c1cccc(Br)c1
growth: 86.6% (inactive)
